Listed here are compounds together with their documented CC50.
Assay: in vitro
Details: African green monkey

Below, 3 compounds whose answers are already recorded.
For CCCCN(C)Cc1cc(Nc2ccnc3cc(I)ccc23)ccc1O the compound record lists CC50 as > 50 µM

For CCCN(CCC)Cc1cc(Nc2ccnc3cc(Cl)ccc23)ccc1O the compound record lists CC50 as > 100 µM

For CCCCCN(C)Cc1cc(Nc2ccnc3cc(I)ccc23)ccc1O the compound record lists CC50 as > 50 µM

Further cases:
For CCCCCCN(C)Cc1cc(Nc2ccnc3cc(I)ccc23)ccc1O the compound record lists CC50 as > 50 µM

For Oc1ccc(Nc2ccnc3cc(Cl)ccc23)cc1CN1CCCC1 the compound record lists CC50 as 41.1 µM

###

Test system: SFTSV
Assay: microbe, parasite or virus in culture
Type: cell-based, severe fever with thrombocytopenia syndrome virus (SFTSV)
Conditions: Severe fever with thrombocytopenia syndrome virus, Vero, 72 h, read-out: EC50: 50% effective concentration (concentration of a drug suppressing SFTSV proliferation by 50%)
PROPERTY: EC50 (µM)
Report as a plain number; the unit µM is understood.

For CCN(CC)Cc1cc(Nc2ccnc3cc(I)ccc23)ccc1O the molecule record lists EC50 as 15.6

For CCN(CC)Cc1cc(Nc2ccnc3cc(Cl)ccc23)ccc1O [Compound 1, Amodiaquine, reference compound] the molecule record lists EC50 as 19.1

For Oc1ccc(Nc2ccnc3cc(Cl)ccc23)cc1CN1CCCC1 the molecule record lists EC50 as 14.6

For CCN(CC)Cc1cc(Nc2ccnc3cc(Br)ccc23)ccc1O the molecule record lists EC50 as 31.1

For CCCN(CCC)Cc1cc(Nc2ccnc3cc(Cl)ccc23)ccc1O the molecule record lists EC50 as 58.7

For CCN(CC)Cc1cc(Nc2ccnc3cc(F)ccc23)ccc1O the molecule record lists EC50 as 36.6

src = patent US11001557B2
